ASSAY NOTES: in vivo
PROTOCOL CONDITIONS: rat, po, 1 mg/kg
ATTRIBUTE MEASURED: bioavailability
Don't forget the unit after the number, please.

> print(dat)
                            chemical.string  attribute.measured  endpoint.result
1  Cn1cc(NC(=O)c2cnn3ccc(N[C@@H]4CCCC[C@@H]4N)nc23)c(C(N)=O)n1     bioavailability               0%
2  Cn1cc(NC(=O)c2cnn3ccc(N[C@@H]4CCCC(F)(F)[C@@H]4N)nc23)c(C(F)F)n1     bioavailability              46%

Shifting focus to the compound that follows.
Task item: // lookup bioavailability for `Cn1cc(NC(=O)c2cnn3ccc(N[C@@H]4CCCC[C@@H]4N)nc23)c(C(F)(F)F)n1`
Reply: 5%

###

ASSAY NOTES: in vitro
PROTOCOL CONDITIONS: dog, MDCK
ATTRIBUTE MEASURED: Papp (×10⁻⁶ cm/s)
Report only the number, with the unit ×10⁻⁶ cm/s understood.

The examples below pair each entry with its known result.
> print(dat)
                            chemical.string  endpoint.result
1  Cn1cc(NC(=O)c2cnn3ccc(N[C@@H]4CCC(F)(F)C[C@@H]4N)nc23)c(C(F)(F)F)n1               26
2  Cn1cc(NC(=O)c2cnn3ccc(N[C@@H]4CCCC(F)(F)[C@@H]4N)nc23)c(C(F)F)n1               29
3  Cn1cc(NC(=O)c2cnn3ccc(N4CC[C@H](F)[C@@H](N)C4)nc23)c(C(F)(F)F)n1               28
4  Cn1cc(NC(=O)c2cnn3ccc(N[C@@H]4CCCC[C@@H]4N)nc23)c(C#N)n1               17
5  Cn1cc(NC(=O)c2cnn3ccc(N[C@@H]4CCCC[C@@H]4N)nc23)c(C(F)F)n1               13

# evaluate next
Task item: Recorded Papp for `Cn1cc(NC(=O)c2cnn3ccc(N[C@@H]4CCCC[C@@H]4N)nc23)c(C(F)(F)F)n1` , please?
Reply: 16

###

ASSAY NOTES: in vivo
PROTOCOL CONDITIONS: rat, plasma, iv, 0.5 mg/kg
ATTRIBUTE MEASURED: clearance (mL/min/kg)
Just the number please, in mL/min/kg, no unit attached.

> print(dat)
                            chemical.string  attribute.measured  endpoint.result
1  Cn1cc(NC(=O)c2cnn3ccc(N[C@@H]4CCCC(F)(F)[C@@H]4N)nc23)c(C(F)F)n1           clearance               29
2  Cn1cc(NC(=O)c2cnn3ccc(N[C@@H]4CCCC[C@@H]4N)nc23)c(C(N)=O)n1           clearance               56

Lab note: next compound to report on.
Task item: Requested read-out: clearance. Entry: `Cn1cc(NC(=O)c2cnn3ccc(N[C@@H]4CCCC[C@@H]4N)nc23)c(C(F)(F)F)n1`
Reply: 98

Provenance of the data: ChEMBL document CHEMBL3588771
